Readings of composite z-score for the listed molecules
# System: Plasmodium falciparum Sir2 (PF13_0152, Sir2A)
# METHOD: Plasmodium falciparum Sir2A binding compounds – biochemical, small-molecule microarray, 635 nm fluorescence, primary screen (AID 1098);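 further: score merges spot fluorescence intensity with its signal-to-noise ratio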
# TEST PARAMETERS: fluorescence 635 nm, higher = more signal
Keep the answer to the number alone.

The molecule identified as `COC(=O)c1c(CC[C@@H](CO)NC(=O)N2CCC[C@H]2Cn2cc(C3(O)CCCCC3)nn2)oc(C(C)=O)c1C(=O)OC` registered its composite z-score at 1.65

The molecule identified as `CC(C)N1C(=O)C[C@@](C(=O)NC2CC2)(c2ccc([N+](=O)[O-])cc2)[C@H]1c1ccc(CO)cc1` registered its composite z-score at -0.66

The molecule identified as CCC1=C2CN(Cc3ccccc3)[C@@H](C(=O)Cc3ccccc3)C2C=CCC1 (some centres undefined) registered its composite z-score at 1.46

The molecule identified as CCCCC(CC)C(O)C1C=CC2C(=O)N(C)C(=O)C2N1Nc1ccccc1 (centres undefined) registered its composite z-score at 0.579
